- ASSAY: Quantitative High-Throughput drug screen in 47 multiple myeloma cell lines against the NCATS MIPE library collection: NCIH929_DSMZ cell viability assay (AID 1918978); also: nearly all actives have a fitted effect of over 35% in size
- PARTICULARS: NCI-H929 myeloma viability, CellTiter-Glo ATP, 48 h; series mostly up to 45.8 µM
Inconclusive results are not listed. The source made the active and inactive calls. Calls follow the shape of the dose curve; as a rule, active = well fitted cell-killing curve with a large enough effect; inconclusive = small, poorly fitted or top-dose-only effect; inactive = no such curve, though single readings can be large or run the other way. Residues, ends and D or L forms follow the SMILES beside them. *: point of attachment. Cbz = O=C(OCc1ccccc1)*
Classes used: active, inactive

COMPOUND | CLASS ASSIGNMENT
CC(=O)N[C@H]1[C@@H]([C@H](O)[C@H](O)CO)OC(C(=O)O)=C[C@@H]1N=C(N)N | inactive
O=C(Nc1cc2cc[nH]c2cn1)c1ccccc1 | active
O=C1NC(=O)[C@@H](c2cn3c4c(cccc24)CCC3)[C@H]1c1c[nH]c2ccccc12 | active
NC(=O)Nc1sc(-c2ccc(F)cc2)cc1C(N)=O | active
NC(=O)Nc1cc(-c2ccc(CN3CCOCC3)cc2)sc1C(N)=O | active
CC(C)C[C@@H](C=O)NC(=O)[C@H](CC(C)C)NC(=O)[C@H](CC(C)C)NC(=O)OCc1ccccc1 (Cbz-Leu-Leu-Leu-aldehyde) | active
CCCc1nc(C(C)(C)O)c(C(=O)O)n1Cc1ccc(-c2ccccc2-c2nn[nH]n2)cc1 | inactive
N#Cc1c(NC(=O)c2cccc3ccccc23)sc2c1CCCC2 | active
CCOC(=O)N1CCN([N+]([O-])=NOc2ccc([N+](=O)[O-])cc2[N+](=O)[O-])CC1 | active
CS(=O)(=O)N1CCc2c(-c3cnc(N)nc3)nc(N3CCOCC3)nc21 | active
NC(=O)c1ncn([C@@H]2O[C@H](CO)[C@@H](O)[C@@H]2O)c1N | inactive
Cc1[nH]c(C=C2C(=O)Nc3ccccc32)c(C)c1CCC(=O)O | active
C[N+](C)([O-])CCNc1ccc(NCC[N+](C)(C)[O-])c2c1C(=O)c1c(O)ccc(O)c1C2=O | inactive
COc1cc(OC)c(C=CS(=O)(=O)Cc2ccc(OC)c(NCC(=O)O)c2)c(OC)c1 | active
CC[C@H]1OC(=O)[C@H](C)[C@@H](O[C@H]2C[C@@](C)(OC)[C@@H](O)[C@H](C)O2)[C@H](C)[C@@H](O[C@@H]2O[C@H](C)C[C@H](N(C)C)[C@@H]2O)[C@](C)(OC)C[C@@H](C)C(=O)[C@H](C)[C@@H](O)[C@]1(C)O | inactive
C#CCC(Cc1cnc2nc(N)nc(N)c2n1)c1ccc(C(=O)N[C@@H](CCC(=O)O)C(=O)O)cc1 (stereo partly drawn) | active
C=C1C(=O)O[C@H]2[C@@H]1CCC(C)=CCC[C@@]1(C)O[C@@H]21 | active
CN1[C@H]2CC(OC(=O)[C@@H](CO)c3ccccc3)C[C@H]1[C@H]1O[C@H]12 (stereo partly drawn) | inactive
CN(C)CC(=O)N1CCC(c2ccc(NC(=O)c3ncc(C#N)[nH]3)c(C3=CCCCC3)c2)CC1 | active
CCCCC(=O)O[C@]1(C(=O)CO)[C@@H](C)C[C@H]2[C@@H]3CCC4=CC(=O)C=C[C@]4(C)[C@@]3(F)[C@@H](O)C[C@@]21C | inactive
Cc1cc(Nc2ncc3c(n2)N(C)C(=O)N(c2cc(NC(=O)c4cccc(C(F)(F)F)c4)ccc2C)C3)n(C)n1 | active
C=C1C(=CC=C2CCC[C@]3(C)[C@@H]([C@H](C)CCCC(C)(C)O)CC[C@@H]23)C[C@@H](O)C[C@@H]1O | active
C[C@H]1C[C@H]2[C@@H]3CCC4=CC(=O)C=C[C@]4(C)[C@@H]3C(=O)C[C@]2(C)[C@@]1(O)C(=O)CO | inactive
COC1=C2C[C@@H](C)C[C@H](OC)[C@@H](O)[C@@H](C)C=C(C)[C@H](OC(N)=O)[C@@H](OC)C=CC=C(C)C(=O)NC(=CC1=O)C2=O | active
CCOC(=O)N1CCN([N+]([O-])=NOc2ccc([N+](=O)[O-])cc2C#N)CC1 | active
O=C(C=CC#Cc1cccc(NS(=O)(=O)c2ccccc2)c1)NO | active
Cc1cnn(C)c1C(=O)Nc1cc(Nc2ccc3c(C=Cc4ccccn4)n[nH]c3c2)ccc1F | active
CCN(C(=O)c1c(O)c2c(Cl)cccc2n(C)c1=O)c1ccccc1 | inactive
c1coc(CNc2ncnc3nc[nH]c23)c1 | inactive
COc1cc(O)c2c(c1)C1OC1C[C@H](O)[C@H](O)C(=O)C=CC[C@H](C)OC2=O (stereo partly drawn) | active
CN[C@@H]1C[C@H]2O[C@@](C)([C@H]1OC)n1c3ccccc3c3c4c(c5c6ccccc6n2c5c31)C(=O)N[C@H]4O | active
CCNC(=O)Nc1ccc(-c2nc3c(c(N4CCOC[C@H]4C)n2)CCN(C2COC2)C3)cc1 | active
CC[C@@]1([C@@H]2O[C@@H]([C@H]3O[C@@](O)(CO)[C@H](C)C[C@H]3C)C[C@H]2C)CC[C@H]([C@]2(C)CC[C@]3(C[C@H](O)[C@@H](C)[C@@H]([C@@H](C)[C@@H](OC)[C@H](C)C(=O)O)O3)O2)O1 | active

----------
- ASSAY: Quantitative High-Throughput drug screen in 47 multiple myeloma cell lines against the NCATS MIPE library collection: RPMI8226_ATCC cell viability assay (AID 1919871); also: nearly all actives have a fitted effect of over 30% in size
- PARTICULARS: RPMI8226 myeloma viability, CellTiter-Glo ATP luminescence, 48 h; series mostly up to 45.8 µM
Inconclusive results are not listed. Calls of active or inactive are those of the source. Calls follow the shape of the dose curve; as a rule, active = well fitted cell-killing curve with a large enough effect; inconclusive = small, poorly fitted or top-dose-only effect, or effect the other way; inactive = no such curve, though single readings can be large or run the other way.
Outcome codes: active, inactive

STRUCTURE | CLASS ASSIGNMENT
CCN(C(=O)c1c(O)c2c(Cl)cccc2n(C)c1=O)c1ccccc1 | inactive
Oc1ccc(-c2ccc(-c3cc(Nc4cccc(CNC5CC5)c4)n[nH]3)cc2)c(O)c1 | active
CNC(=O)c1ccc(Nc2cc(Nc3ccccc3S(=O)(=O)C(C)C)c3cc[nH]c3n2)nc1 | active
Cn1cnc2c(F)c(Nc3ccc(Br)cc3F)c(C(=O)NOCCO)cc21 | inactive
CCc1ccc(C(=O)Nc2cc(CN3CCN(C)CC3)cc(C(F)(F)F)c2)cc1C#Cc1cnc2ccnn2c1 | active

----------
- ASSAY: Quantitative High-Throughput drug screen in 47 multiple myeloma cell lines against the NCATS MIPE library collection: KMS28BM_JCRB cell viability assay (AID 1919874); also: nearly all actives have a fitted effect of over 35% in size
- PARTICULARS: CellTiter-Glo ATP, 48 h; series mostly up to 45.8 µM
Results filed as inconclusive are left out. Activity calls are given as the source filed them. The call rests on the fitted dose curve; in most records, active means well fitted cell-killing curve with a large enough effect; inconclusive means small, poorly fitted or top-dose-only effect, or effect the other way; inactive means no such curve, though single readings can be large or run the other way. Non-standard residues stand in square brackets, D forms with d. Residues, ends and D or L forms follow the SMILES beside them. *: point of attachment. Nva = CCC[C@H](N)C(=O)O; Cbz = O=C(OCc1ccccc1)*
Possible outcomes: 1 = active, -1 = inactive

MOLECULE | CLASS ASSIGNMENT
C[C@H](NCc1ccc2c(c1)nc(NC(=O)c1ccc(-c3cn[nH]c3)s1)n2CCc1ccccc1)C(C)(C)C | 1
CCC[C@@H](C=O)NC(=O)[C@H](CC(C)C)NC(=O)[C@H](CC(C)C)NC(=O)OCc1ccccc1 (Cbz-Leu-Leu-[Nva]-aldehyde) | 1
COc1cc(OC)cc(-c2ccc3ncc4ccc(=O)n(-c5ccc(N6CCNCC6)c(C(F)(F)F)c5)c4c3c2)c1 | 1
COc1ccc(S(=O)(=O)Nc2cc(-c3c(O)ccc4ccccc34)c(O)c3ccccc23)cc1 | 1
CN1CCCN(C(=O)c2cccc(-c3ccc(C=C4C(=O)Nc5ccc(Cl)cc54)o3)c2)CC1 | 1
COc1ccc(S(=O)(=O)Nc2cccnc2Nc2ccc(O)cc2)cc1 | 1
Nc1nc(N)c2nc(-c3cccc(O)c3)c(-c3cccc(O)c3)nc2n1 | 1
CCOC(=O)N1CCN([N+]([O-])=NOc2ccc([N+](=O)[O-])cc2C#N)CC1 | 1
COC(=O)[C@H](CCCN=C(N)N)NS(=O)(=O)c1ccc(C)cc1 | -1
COc1cc(CCc2cc(NC(=O)c3ccc(N4C[C@@H](C)N[C@@H](C)C4)cc3)n[nH]2)cc(OC)c1 | 1
O=S(=O)(O)CCSSCCS(=O)(=O)O | -1
COc1ccc(C=Cc2cc(OC)c(OC)c(OC)c2)cc1NC(=O)[C@H](N)CO | 1
Cc1cnc(NC(=O)Nc2cc(Br)c(C)cc2OC[C@@H]2CNCCO2)cn1 | 1
CC(=O)N[C@@H]1[C@H](O[C@@H]2c3ccc(c(Cl)c3)Oc3cc4cc(c3O[C@H]3O[C@H](CO)[C@@H](O)[C@H](O)[C@H]3NC(=O)CCCCCCCC(C)C)Oc3ccc(cc3Cl)C[C@H]3NC(=O)[C@H](N)c5ccc(O)c(c5)Oc5cc(O)cc(c5)[C@H](NC3=O)C(=O)N[C@H]4C(=O)N[C@H]3C(=O)N[C@@H]2C(=O)N[C@@H](C(=O)O)c2cc(O)cc(O[C@H]4O[C@H](CO)[C@@H](O)[C@H](O)[C@H]4O)c2-c2cc3ccc2O)O[C@H](CO)[C@@H](O)[C@@H]1O | -1
OCc1ccccc1O[C@@H]1O[C@H](CO)[C@H](O)[C@H](O)[C@H]1O | -1
Nc1ccc(C(=O)Nc2cccc(-c3nc(N4CCOCC4)c4oc5ncccc5c4n3)c2)cn1 | 1
CC(=O)N1CCN(c2ccc(OCc3nn(C)c(C)c3-c3cccc4c(CCCOc5cccc6ccccc56)c(C(=O)O)n(Cc5cccnc5)c34)cc2)CC1 | 1
C[C@@]12C[C@@]3(O)O[C@@H](O1)[C@]1(COC(=O)c4ccccc4)[C@@H]3C[C@@]12O[C@@H]1O[C@H](CO)[C@@H](O)[C@H](O)[C@@H]1O | -1
COc1cc(C(C)C)c(Oc2cnc(NC(CO)CO)nc2N)cc1I | -1
C[N+](C)([O-])CCNc1ccc(NCC[N+](C)(C)[O-])c2c1C(=O)c1c(O)ccc(O)c1C2=O | -1
NC(=O)Nc1sc(-c2ccc(F)cc2)cc1C(N)=O | 1
C=CC1=C(C(=O)O)N2C(=O)[C@@H](NC(=O)C(=NO)c3csc(N)n3)[C@H]2SC1 | -1
